Data origin: ChEMBL document CHEMBL5291721

biological target: Prostaglandin G/H synthase 1 (Rattus norvegicus, UniProt Q63921); format: functional; note: assay procedure not described here
Sequence (Q63921 whole entry): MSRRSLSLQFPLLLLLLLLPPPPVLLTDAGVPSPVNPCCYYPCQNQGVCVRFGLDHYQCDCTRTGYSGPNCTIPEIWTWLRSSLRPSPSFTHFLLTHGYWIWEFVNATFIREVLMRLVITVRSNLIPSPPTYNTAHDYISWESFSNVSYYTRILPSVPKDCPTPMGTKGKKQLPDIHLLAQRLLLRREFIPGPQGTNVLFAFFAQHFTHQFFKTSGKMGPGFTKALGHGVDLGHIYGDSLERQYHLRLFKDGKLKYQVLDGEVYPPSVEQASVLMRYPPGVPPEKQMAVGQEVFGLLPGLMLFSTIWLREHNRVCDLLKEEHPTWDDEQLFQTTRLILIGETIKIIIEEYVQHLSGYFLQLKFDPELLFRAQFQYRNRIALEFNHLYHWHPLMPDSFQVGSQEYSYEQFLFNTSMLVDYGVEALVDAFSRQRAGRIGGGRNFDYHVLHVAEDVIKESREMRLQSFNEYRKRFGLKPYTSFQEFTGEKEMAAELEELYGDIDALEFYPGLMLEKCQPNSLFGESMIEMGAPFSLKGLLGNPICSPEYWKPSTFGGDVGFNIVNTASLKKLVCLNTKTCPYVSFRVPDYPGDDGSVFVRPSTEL
As shown below, each of these compounds has a reported AC50 value.

Compound	AC50
CN(C)CCc1c[nH]c2ccc(Cn3cncn3)cc12 [RIZATRIPTAN]	> 30 µM
C#CCOc1ccc(N)cc1C(=O)NCCCC [PARSALMIDE]	2.3 µM
CCC(COC(=O)c1cc(OC)c(OC)c(OC)c1)(c1ccccc1)N(C)C (stereo not given) [TRIMEBUTINE]	> 30 µM
Cc1ncc2n1-c1ccc(Cl)cc1C(c1ccccc1F)=NC2 [MIDAZOLAM]	> 30 µM
CCCCC1C(=O)N(c2ccccc2)N(c2ccccc2)C1=O [PHENYLBUTAZONE]	> 10 µM
C[N@+]1(CCF)[C@@H]2CC[C@H]1C[C@@H](OC(=O)C(O)(c1ccccc1)c1ccccc1)C2	> 10 µM
CCC1(c2ccccc2)CCC(=O)NC1=O (stereo not given) [GLUTETHIMIDE]	> 10 µM
CC(=O)OCC(=O)[C@@]1(O)[C@H](C)C[C@H]2[C@@H]3CCC4=CC(=O)C=C[C@]4(C)[C@@]3(F)[C@@H](O)C[C@@]21C [DEXAMETHASONE ACETATE]	> 30 µM
CN(C)CC[C@@H](c1ccc(Cl)cc1)c1ccccn1 [DEXCHLORPHENIRAMINE]	> 30 µM
CCOC(=O)c1cncn1[C@H](C)c1ccccc1 [ETOMIDATE]	> 10 µM
CCN1CCCC1CNC(=O)c1cc(S(=O)(=O)CC)c(N)cc1OC (stereo not given) [AMISULPRIDE]	29 µM
OCc1cc(C(O)CNCCCCCCOCCCCc2ccccc2)ccc1O (stereo not given) [SALMETEROL]	> 30 µM
CC(C)c1nc(N(C)S(C)(=O)=O)nc(-c2ccc(F)cc2)c1/C=C/[C@@H](O)C[C@@H](O)CC(=O)O [ROSUVASTATIN]	> 30 µM
CC1=C(C)C(=O)C(C(CCCCCC(=O)O)c2ccccc2)=C(C)C1=O (stereo not given) [SERATRODAST]	1.14 µM
CCC(C)C1(CC)C(=O)NC(=O)NC1=O (stereo not given) [BUTABARBITAL]	> 30 µM
CCC(C)C(CC)C(N)=O (stereo not given) [VALNOCTAMIDE]	> 30 µM
CC(N)C(O)c1ccccc1 (stereo not given) [PHENYLPROPANOLAMINE]	> 30 µM
Oc1ccc2c(c1)[C@@]13CCCC[C@@]1(O)[C@@H](C2)N(CC1CCC1)CC3 [BUTORPHANOL]	> 30 µM
COc1ccc(CC2c3cc(OC)c(OC)cc3CC[N+]2(C)CCC(=O)OCCCCCOC(=O)CC[N+]2(C)CCc3cc(OC)c(OC)cc3C2Cc2ccc(OC)c(OC)c2)cc1OC (stereo not given)	> 30 µM
CCC[C@H](NC(=O)[C@@H]1[C@H]2CCC[C@H]2CN1C(=O)[C@@H](NC(=O)[C@@H](NC(=O)c1cnccn1)C1CCCCC1)C(C)(C)C)C(=O)C(=O)NC1CC1	> 30 µM

----------
biological target: Voltage-dependent L-type calcium channel subunit alpha-1C (Rattus norvegicus); type: functional; note: assay procedure not described here
Sequence (P22002 whole entry): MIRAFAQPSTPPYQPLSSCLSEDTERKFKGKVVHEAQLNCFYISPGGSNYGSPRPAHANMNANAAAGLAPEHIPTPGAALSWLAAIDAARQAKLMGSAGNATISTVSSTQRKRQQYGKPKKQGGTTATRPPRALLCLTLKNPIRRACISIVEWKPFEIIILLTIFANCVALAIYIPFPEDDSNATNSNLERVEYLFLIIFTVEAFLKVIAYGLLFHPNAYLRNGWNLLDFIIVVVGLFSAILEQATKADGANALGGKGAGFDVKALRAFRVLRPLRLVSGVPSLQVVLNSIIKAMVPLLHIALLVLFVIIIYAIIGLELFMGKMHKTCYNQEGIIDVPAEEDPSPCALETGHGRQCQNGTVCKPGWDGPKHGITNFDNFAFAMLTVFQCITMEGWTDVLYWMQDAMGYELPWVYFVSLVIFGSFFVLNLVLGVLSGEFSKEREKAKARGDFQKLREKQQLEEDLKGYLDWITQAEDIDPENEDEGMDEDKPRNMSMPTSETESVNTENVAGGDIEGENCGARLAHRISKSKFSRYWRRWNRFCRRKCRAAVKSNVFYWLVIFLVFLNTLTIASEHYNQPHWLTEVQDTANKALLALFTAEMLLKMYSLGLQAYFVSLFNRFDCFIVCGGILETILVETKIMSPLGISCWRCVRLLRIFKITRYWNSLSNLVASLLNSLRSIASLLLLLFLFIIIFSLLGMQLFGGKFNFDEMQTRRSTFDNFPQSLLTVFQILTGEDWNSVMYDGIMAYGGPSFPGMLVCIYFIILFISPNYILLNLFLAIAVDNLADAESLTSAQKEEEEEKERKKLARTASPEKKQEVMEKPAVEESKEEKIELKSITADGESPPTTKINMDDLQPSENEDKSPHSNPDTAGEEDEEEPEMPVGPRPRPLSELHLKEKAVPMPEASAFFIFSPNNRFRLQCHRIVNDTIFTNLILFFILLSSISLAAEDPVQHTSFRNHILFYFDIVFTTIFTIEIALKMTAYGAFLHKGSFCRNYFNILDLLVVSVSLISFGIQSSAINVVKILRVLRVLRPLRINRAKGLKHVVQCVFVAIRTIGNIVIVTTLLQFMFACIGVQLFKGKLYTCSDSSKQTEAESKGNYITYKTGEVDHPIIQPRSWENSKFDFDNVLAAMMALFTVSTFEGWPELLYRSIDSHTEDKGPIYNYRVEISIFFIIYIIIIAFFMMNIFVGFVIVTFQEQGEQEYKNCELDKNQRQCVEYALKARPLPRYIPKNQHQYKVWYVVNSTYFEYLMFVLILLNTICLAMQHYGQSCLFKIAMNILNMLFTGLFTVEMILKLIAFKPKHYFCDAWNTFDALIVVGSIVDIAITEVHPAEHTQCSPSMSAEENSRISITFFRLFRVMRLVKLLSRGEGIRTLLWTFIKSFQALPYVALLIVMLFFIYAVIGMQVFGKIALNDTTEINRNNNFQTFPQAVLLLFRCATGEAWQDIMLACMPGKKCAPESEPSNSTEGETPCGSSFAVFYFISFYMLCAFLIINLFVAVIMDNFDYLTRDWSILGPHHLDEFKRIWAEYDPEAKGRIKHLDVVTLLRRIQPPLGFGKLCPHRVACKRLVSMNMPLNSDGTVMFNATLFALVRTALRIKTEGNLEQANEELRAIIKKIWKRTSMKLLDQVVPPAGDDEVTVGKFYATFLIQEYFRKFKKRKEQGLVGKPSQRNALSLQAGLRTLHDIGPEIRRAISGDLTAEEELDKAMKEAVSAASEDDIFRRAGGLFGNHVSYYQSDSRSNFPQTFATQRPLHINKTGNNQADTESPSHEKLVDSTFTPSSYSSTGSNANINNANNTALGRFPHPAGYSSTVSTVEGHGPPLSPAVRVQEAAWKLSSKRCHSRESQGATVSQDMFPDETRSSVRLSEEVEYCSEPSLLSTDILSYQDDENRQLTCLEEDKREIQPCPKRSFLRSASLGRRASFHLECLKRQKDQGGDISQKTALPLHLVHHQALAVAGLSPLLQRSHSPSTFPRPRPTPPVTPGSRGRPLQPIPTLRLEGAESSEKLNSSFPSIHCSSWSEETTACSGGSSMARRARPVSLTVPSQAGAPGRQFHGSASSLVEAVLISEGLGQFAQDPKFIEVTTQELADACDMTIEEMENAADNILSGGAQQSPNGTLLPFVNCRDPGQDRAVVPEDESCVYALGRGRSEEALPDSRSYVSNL
# AC50 annotations
Metric name: AC50

Molecule	Recorded measurement
CC(=O)O[C@H](CC(=O)[O-])C[N+](C)(C)C	> 30 µM
O=C(O)c1ccccc1Nc1cc(Cl)ccc1C(=O)O	> 30 µM
CN1CCN(C2=Nc3ccccc3Oc3ccc(Cl)cc32)CC1	> 10 µM
CC(C)Cc1ccc(C(C)C(=O)O)cc1 (stereo not given)	> 10 µM
CN(C)CCCNc1c2ccccc2nc2cccc([N+](=O)[O-])c12	> 30 µM

----------
Target or system Alpha-1A adrenergic receptor (Homo sapiens, UniProt P35348); recorded quantity AC50. Note: assay procedure not described here.
Metric name: AC50

Compound	Experimental target	Metric name	Recorded measurement
C[C@H]1c2cccc(O)c2C(=O)C2=C(O)[C@]3(O)C(=O)C(C(N)=O)=C(O)[C@@H](N(C)C)[C@@H]3[C@@H](O)[C@@H]21	Alpha-1A adrenergic receptor (Homo sapiens, UniProt P35348)	AC50	> 10 µM
CN1CCN(C2=Nc3ccccc3Oc3ccc(Cl)cc32)CC1	Alpha-1A adrenergic receptor (Homo sapiens, UniProt P35348)	AC50	0.169 µM
C=CC[C@@H]1/C=C(\C)C[C@H](C)C[C@H](OC)[C@H]2O[C@@](O)(C(=O)C(=O)N3CCCC[C@H]3C(=O)O[C@H](/C(C)=C/[C@@H]3CC[C@@H](O)[C@H](OC)C3)[C@H](C)[C@@H](O)CC1=O)[C@H](C)C[C@@H]2OC [TACROLIMUS ANHYDROUS]	Alpha-1A adrenergic receptor (Homo sapiens, UniProt P35348)	AC50	> 10 µM

----------
target: Gamma-aminobutyric acid receptor subunit alpha-1 (Rattus norvegicus); format: functional; note: assay procedure not described here
Sequence (P62813 whole entry): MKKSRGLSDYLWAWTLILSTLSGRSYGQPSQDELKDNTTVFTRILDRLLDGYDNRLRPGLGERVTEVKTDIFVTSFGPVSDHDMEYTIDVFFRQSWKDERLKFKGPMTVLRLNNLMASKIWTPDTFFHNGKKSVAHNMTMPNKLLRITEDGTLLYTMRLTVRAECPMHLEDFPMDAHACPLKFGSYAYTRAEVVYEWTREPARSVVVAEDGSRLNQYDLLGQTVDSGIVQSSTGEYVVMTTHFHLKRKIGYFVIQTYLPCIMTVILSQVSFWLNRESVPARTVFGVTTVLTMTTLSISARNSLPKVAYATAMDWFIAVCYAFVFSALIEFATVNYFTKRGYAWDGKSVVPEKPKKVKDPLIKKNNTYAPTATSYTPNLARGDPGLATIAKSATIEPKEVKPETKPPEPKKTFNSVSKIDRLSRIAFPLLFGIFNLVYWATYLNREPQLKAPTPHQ

Compound	AC50
CC(CCc1ccc(O)cc1)NCCc1ccc(O)c(O)c1 (stereo unspecified) [DOBUTAMINE]	> 30 µM
CCC(=O)O[C@]1(C(=O)SCF)[C@H](C)C[C@H]2[C@@H]3C[C@H](F)C4=CC(=O)C=C[C@]4(C)[C@@]3(F)[C@@H](O)C[C@@]21C [FLUTICASONE PROPIONATE]	> 30 µM
COc1cc(N)c(Cl)cc1C(=O)NC1CCN(Cc2ccccc2)CC1 [CLEBOPRIDE]	0.13 µM
Cc1cc2cc3c(C)cc(=O)oc3c(C)c2o1 [TRIOXSALEN]	> 10 µM
Clc1ccc(C(Cn2ccnc2)OCc2ccsc2Cl)c(Cl)c1 (stereo unspecified) [TIOCONAZOLE]	> 30 µM
CCCCCCCCCCCCCCCCCCCCCC(=O)Nc1ccn([C@@H]2O[C@H](CO)[C@@H](O)[C@@H]2O)c(=O)n1 [ENOCITABINE]	> 30 µM
C[C@]12CCC(=O)C(O)=C1CC[C@@H]1[C@@H]2CC[C@]2(C)C(=O)CC[C@@H]12 [FORMESTANE]	> 30 µM
CC(S)C(=O)NCC(=O)O (stereo unspecified) [TIOPRONIN]	> 30 µM
Clc1ccc2c(N3CCN(CCCN4CCN(c5ccnc6cc(Cl)ccc56)CC4)CC3)ccnc2c1 [PIPERAQUINE]	> 30 µM
O=[N+]([O-])c1ccc(O)c2ncccc12 [NITROXOLINE]	> 30 µM
COCC1=C(C(=O)O)N2C(=O)[C@@H](NC(=O)/C(=N\OC)c3csc(N)n3)[C@H]2SC1 [CEFPODOXIME]	> 30 µM
C/C(=C\C(=O)OCCCCCCCCC(=O)O)C[C@@H]1OC[C@H](C[C@@H]2O[C@H]2[C@@H](C)[C@H](C)O)[C@@H](O)[C@H]1O [MUPIROCIN]	> 10 µM
CCCCCC(=O)O[C@]1(C(C)=O)CC[C@H]2[C@@H]3CCC4=CC(=O)CC[C@]4(C)[C@H]3CC[C@@]21C [HYDROXYPROGESTERONE CAPROATE]	> 30 µM
CSCC[C@H](NC(=O)[C@H](Cc1c[nH]c2ccccc12)NC(=O)CCNC(=O)OC(C)(C)C)C(=O)N[C@@H](CC(=O)O)C(=O)N[C@@H](Cc1ccccc1)C(N)=O [PENTAGASTRIN]	> 10 µM
CC(N)C12CC3CC(CC(C3)C1)C2 (stereo unspecified) [RIMANTADINE]	> 10 µM
CCN1CCN(Cc2ccc(Nc3ncc(F)c(-c4cc(F)c5nc(C)n(C(C)C)c5c4)n3)nc2)CC1 [ABEMACICLIB]	> 30 µM

----------
biological target: D(1A) dopamine receptor (Homo sapiens); format: functional, cell-based; note: assay procedure not described here
Sequence (P21728 whole entry): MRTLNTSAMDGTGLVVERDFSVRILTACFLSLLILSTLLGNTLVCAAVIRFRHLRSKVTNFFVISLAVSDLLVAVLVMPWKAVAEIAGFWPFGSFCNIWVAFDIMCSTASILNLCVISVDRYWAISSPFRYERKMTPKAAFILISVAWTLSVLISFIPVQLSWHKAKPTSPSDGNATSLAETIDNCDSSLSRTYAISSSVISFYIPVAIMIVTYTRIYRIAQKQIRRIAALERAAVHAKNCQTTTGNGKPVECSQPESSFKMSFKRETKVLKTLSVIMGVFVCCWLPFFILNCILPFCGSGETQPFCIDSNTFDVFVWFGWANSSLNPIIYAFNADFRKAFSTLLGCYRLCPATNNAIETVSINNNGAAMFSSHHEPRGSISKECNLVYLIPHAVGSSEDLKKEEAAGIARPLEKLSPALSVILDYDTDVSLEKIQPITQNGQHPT
Metric name: AC50

Compound	Recorded measurement
COc1cc2c(cc1OC)C(CCc1ccc(Cl)cc1)N(C)CC2 (stereo unspecified)	> 10 µM
CCCCCC(=O)O[C@]1(C(C)=O)CC[C@H]2[C@@H]3CCC4=CC(=O)CC[C@]4(C)[C@H]3CC[C@@]21C [HYDROXYPROGESTERONE CAPROATE]	> 30 µM
O=C1CN(/N=C/c2ccc(-c3ccc([N+](=O)[O-])cc3)o2)C(O)=N1	> 10 µM
N[C@@H](CC(=O)N1CCn2c(nnc2C(F)(F)F)C1)Cc1cc(F)c(F)cc1F	> 30 µM
Clc1ccc(C(Cn2ccnc2)OCc2ccsc2Cl)c(Cl)c1 (stereo unspecified)	> 30 µM
CN1C[C@H](C(=O)N[C@]2(C)O[C@@]3(O)[C@@H]4CCCN4C(=O)[C@H](Cc4ccccc4)N3C2=O)C=C2c3cccc4[nH]cc(c34)C[C@H]21	0.59 µM

----------
Values of AC50 reported for Thromboxane A2 receptor (Homo sapiens) appear below.
Metric name: AC50

Molecule	Experimental target	Metric name	Recorded measurement
Cn1cnc2c(F)c(Nc3ccc(Br)cc3Cl)c(C(=O)NOCCO)cc21	Thromboxane A2 receptor (Homo sapiens)	AC50	> 30 µM
CC(=O)N[C@@H](CS)C(=O)O	Thromboxane A2 receptor (Homo sapiens)	AC50	> 30 µM
CCOC(=O)O[C@]1(C(=O)OCCl)CC[C@H]2[C@@H]3CCC4=CC(=O)C=C[C@]4(C)[C@H]3[C@@H](O)C[C@@]21C [LOTEPREDNOL ETABONATE]	Thromboxane A2 receptor (Homo sapiens)	AC50	> 30 µM
CCC(=O)O[C@]1(C(=O)SCF)[C@H](C)C[C@H]2[C@@H]3C[C@H](F)C4=CC(=O)C=C[C@]4(C)[C@@]3(F)[C@@H](O)C[C@@]21C [FLUTICASONE PROPIONATE]	Thromboxane A2 receptor (Homo sapiens)	AC50	> 30 µM
CC(C)[C@H](N)C(=O)OCC(CO)OCn1cnc2c(=O)nc(N)[nH]c21 (stereo not given in full)	Thromboxane A2 receptor (Homo sapiens)	AC50	> 30 µM
CN(C)CCC[C@@]1(c2ccc(F)cc2)OCc2cc(C#N)ccc21	Thromboxane A2 receptor (Homo sapiens)	AC50	> 30 µM
Nc1cc(-c2ccncc2)c[nH]c1=O	Thromboxane A2 receptor (Homo sapiens)	AC50	> 30 µM
COc1cc2nc(N3CCN(C(=O)C4CCCO4)CC3)nc(N)c2cc1OC (stereo not given)	Thromboxane A2 receptor (Homo sapiens)	AC50	> 30 µM
C#CCOc1ccc(N)cc1C(=O)NCCCC [PARSALMIDE]	Thromboxane A2 receptor (Homo sapiens)	AC50	> 30 µM
CC(=O)O[C@H](CC(=O)[O-])C[N+](C)(C)C	Thromboxane A2 receptor (Homo sapiens)	AC50	> 30 µM
CC1OC2(CS1)CN1CCC2CC1 (stereo not given)	Thromboxane A2 receptor (Homo sapiens)	AC50	> 10 µM
CC(C)(C)C(=O)OCC(=O)[C@H]1CC[C@H]2[C@@H]3CCC4=CC(=O)CC[C@]4(C)[C@H]3CC[C@]12C [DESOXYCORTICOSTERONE PIVALATE]	Thromboxane A2 receptor (Homo sapiens)	AC50	> 10 µM
CC12CC3CC(C)(C1)CC(N)(C3)C2 [MEMANTINE]	Thromboxane A2 receptor (Homo sapiens)	AC50	> 30 µM
C=C1/C(=C\C=C2/CCC[C@]3(C)[C@@H]([C@H](C)/C=C/[C@@H](O)C4CC4)CC[C@@H]23)C[C@@H](O)C[C@@H]1O	Thromboxane A2 receptor (Homo sapiens)	AC50	> 30 µM
CCN(CC)CCN1C(=O)CN=C(c2ccccc2F)c2cc(Cl)ccc21	Thromboxane A2 receptor (Homo sapiens)	AC50	> 30 µM
C/C(=C\C(=O)OCCCCCCCCC(=O)O)C[C@@H]1OC[C@H](C[C@@H]2O[C@H]2[C@@H](C)[C@H](C)O)[C@@H](O)[C@H]1O	Thromboxane A2 receptor (Homo sapiens)	AC50	> 10 µM
Nc1ncn([C@H]2C[C@H](O)[C@@H](CO)O2)c(=O)n1	Thromboxane A2 receptor (Homo sapiens)	AC50	> 30 µM
CN1C(C(=O)Nc2ccccn2)=C(O)c2ccccc2S1(=O)=O	Thromboxane A2 receptor (Homo sapiens)	AC50	> 10 µM
O=C(O)CCNC(=O)c1ccccc1	Thromboxane A2 receptor (Homo sapiens)	AC50	> 30 µM
CC(C(=O)O)c1ccc(-c2ccccc2)c(F)c1 (stereo not given)	Thromboxane A2 receptor (Homo sapiens)	AC50	> 10 µM
CCCCC1C(=O)N(c2ccccc2)N(c2ccccc2)C1=O	Thromboxane A2 receptor (Homo sapiens)	AC50	> 30 µM
CCCN[C@H]1CCc2nc(N)sc2C1 [PRAMIPEXOLE]	Thromboxane A2 receptor (Homo sapiens)	AC50	> 30 µM
CC(C)(C)NCC(O)c1cc(O)cc(O)c1 (stereo not given)	Thromboxane A2 receptor (Homo sapiens)	AC50	> 30 µM
CC(N)C12CC3CC(CC(C3)C1)C2 (stereo not given)	Thromboxane A2 receptor (Homo sapiens)	AC50	> 10 µM
O=C1CN=C(c2ccccc2)c2cc([N+](=O)[O-])ccc2N1	Thromboxane A2 receptor (Homo sapiens)	AC50	> 10 µM
CCN(CC)CCNC(=O)c1c(C)[nH]c(/C=C2\C(=O)Nc3ccc(F)cc32)c1C	Thromboxane A2 receptor (Homo sapiens)	AC50	9.1 µM
CN1CCN(C2=Nc3ccccc3Oc3ccc(Cl)cc32)CC1	Thromboxane A2 receptor (Homo sapiens)	AC50	> 30 µM
C[C@H]1c2cccc(O)c2C(=O)C2=C(O)[C@]3(O)C(=O)C(C(N)=O)=C(O)[C@@H](N(C)C)[C@@H]3[C@@H](O)[C@@H]21	Thromboxane A2 receptor (Homo sapiens)	AC50	> 30 µM
CO[C@H]1/C=C/O[C@@]2(C)Oc3c(C)c(O)c4c(O)c(c(/C=N/N5CCN(C)CC5)c(O)c4c3C2=O)NC(=O)/C(C)=C\C=C\[C@H](C)[C@H](O)[C@@H](C)[C@@H](O)[C@@H](C)[C@H](OC(C)=O)[C@@H]1C	Thromboxane A2 receptor (Homo sapiens)	AC50	17.4 µM
CCCCCCCCCCCCCCCCCCCCCC(=O)Nc1ccn([C@@H]2O[C@H](CO)[C@@H](O)[C@@H]2O)c(=O)n1	Thromboxane A2 receptor (Homo sapiens)	AC50	> 30 µM
Cc1cc2cc3c(C)cc(=O)oc3c(C)c2o1	Thromboxane A2 receptor (Homo sapiens)	AC50	> 10 µM
C=CCNc1nc(NCC=C)nc(N2CCN(C(c3ccc(F)cc3)c3ccc(F)cc3)CC2)n1	Thromboxane A2 receptor (Homo sapiens)	AC50	> 30 µM
CCCCC(=O)O[C@]1(C(=O)CO)[C@@H](C)C[C@H]2[C@@H]3CCC4=CC(=O)C=C[C@]4(C)[C@@]3(F)[C@@H](O)C[C@@]21C [BETAMETHASONE VALERATE]	Thromboxane A2 receptor (Homo sapiens)	AC50	> 30 µM
CC(C)Cc1ccc(C(C)C(=O)O)cc1 (stereo not given)	Thromboxane A2 receptor (Homo sapiens)	AC50	> 30 µM
OC1(c2ccc(Cl)cc2)c2ccccc2C2=NCCN21 (stereo not given)	Thromboxane A2 receptor (Homo sapiens)	AC50	> 30 µM
